From: patent US7582803B2

Some compounds, each annotated with its measured EC50.
tested system: UniProt:O14842
method notes: Cell-based aequorin assay
measurement setup: CHO cells stably transfected with GPR40 and aequorin; 0.01% HSA; aequorin luminescence; read-out: Relative EC50

CC#C[C@@H](CC(=O)O)c1ccc(OC2CCc3cc(-c4cc(OC)ccc4F)ccc32)cc1 (some centres unmarked) = 100 to 1000 nM

Q) What value of measured EC50 is listed for Cn1ccnc1[C@@H](CC(=O)O)c1ccc(OC2CCc3cc(Cl)ccc32)cc1 (some centres unmarked) ?
A) 1000 to 10000 nM

Q) What value of measured EC50 is listed for C[C@H](Oc1ccc([C@H](CC(=O)O)c2nccn2C)cc1)c1ccc2c(c1)C(C)(C)CCC2(C)C ?
A) > 10000 nM

====

tested system: human GPR40 (Homo sapiens)
method notes: Cell-based aequorin assay
measurement setup: CHO cells stably transfected with GPR40 and aequorin; 0.01% HSA; aequorin luminescence; read-out: Relative EC50
pEC50: −log10 of the molar value.
Some molecules, each annotated with its measured pEC50.

See these solved cases before continuing.
CC#C[C@@H](CC(=O)O)c1ccc(O[C@H]2CCc3cc(Br)ccc32)cc1 = 7.00 to 8.00
CC#C[C@@H](CC(=O)O)c1ccc(OC2CCc3c2ccc(OC)c3OC)cc1 (stereo partly shown) = 5.00 to 6.00
CC#C[C@@H](CC(=O)O)c1ccc(OC2CCc3ccccc3C2)cc1 (stereo partly shown) = 6.00 to 7.00

Please examine the following record next.
Q) What value of measured pEC50 is listed for Cn1cnnc1[C@H](CC(=O)O)c1ccc(OCc2ccc3c(c2)C(C)(C)CCC3(C)C)cc1 ?
A) < 5.00

====

Some molecules, each annotated with its measured EC50.
tested system: human GPR40 (Homo sapiens, UniProt O14842)
Sequence (O14842 whole entry): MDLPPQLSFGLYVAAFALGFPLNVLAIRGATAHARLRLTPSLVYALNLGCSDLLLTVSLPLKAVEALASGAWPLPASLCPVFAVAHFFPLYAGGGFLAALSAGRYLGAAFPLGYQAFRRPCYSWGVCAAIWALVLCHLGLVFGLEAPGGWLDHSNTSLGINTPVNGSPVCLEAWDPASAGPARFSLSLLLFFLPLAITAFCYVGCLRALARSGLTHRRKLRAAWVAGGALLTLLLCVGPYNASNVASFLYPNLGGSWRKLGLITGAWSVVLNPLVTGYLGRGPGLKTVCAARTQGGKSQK
method notes: Cell-based aequorin assay
measurement setup: CHO cells stably transfected with GPR40 and aequorin; 0.01% HSA; aequorin luminescence; read-out: Relative EC50

See these solved cases before continuing.
CC#C[C@H](CC(=O)O)c1ccc(OC2CCc3cc(-c4cccc(OC)c4F)ccc32)cc1 (some centres unmarked) = > 10000 nM
CC1(C)CCC(C)(C)c2cc(COc3ccc([C@H](CC(=O)O)c4ncco4)cc3)ccc21 = 10 to 100 nM
CC#C[C@@H](CC(=O)O)c1ccc(OC2CCc3c(C)cccc32)cc1 (some centres unmarked) = 10 to 100 nM
CC#C[C@H](CC(=O)O)c1ccc(OCC2CCCCC2)cc1 = 1000 to 10000 nM

Please examine the following record next.
Q) human GPR40 (Homo sapiens, UniProt O14842) / EC50 / CC#C[C@@H](CC(=O)O)c1ccc(OC2CCc3cc(-c4cccs4)ccc32)cc1 (some centres unmarked) : value?
A) 10 to 100 nM

====

tested system: human GPR40 (Homo sapiens)
method notes: Cell-based aequorin assay
measurement setup: CHO cells stably transfected with GPR40 and aequorin; 0.01% HSA; aequorin luminescence; read-out: Relative EC50
pEC50: −log10 of the molar value.
Some compounds, each annotated with its measured pEC50.

Cc1cnc(C(CC(=O)O)c2ccc(OC3CCc4cc(Cl)ccc43)cc2)o1 (racemic) = 5.00 to 6.00
CC#C[C@@H](CC(=O)O)c1ccc(OC2CCc3cc(OC)ccc32)cc1 (some centres unmarked) = 7.00 to 8.00
CC#C[C@H](CC(=O)O)c1ccc(OC2CCc3cc(-c4ccccc4OCC)ccc32)cc1 (some centres unmarked) = < 5.00

Q) What value of measured pEC50 is listed for CC1(C)CCC(C)(C)c2cc(COc3ccc([C@H](CC(=O)O)c4cnco4)cc3)ccc21 ?
A) 6.00 to 7.00

Q) What value of measured pEC50 is listed for O=C(O)CC(c1ccc(OC2Cc3ccccc3C2)cc1)c1ccc(F)cc1F (racemic) ?
A) 6.00 to 7.00

Q) What value of measured pEC50 is listed for CC#C[C@@H](CC(=O)O)c1ccc(OC2CCc3c(-c4ccc(C(F)(F)F)cc4)cccc32)cc1 (some centres unmarked) ?
A) 7.00 to 8.00

Q) What value of measured pEC50 is listed for CC#C[C@@H](CC(=O)O)c1ccc(OC2CCCc3c(Br)cccc32)cc1 (some centres unmarked) ?
A) 7.00 to 8.00

Q) What value of measured pEC50 is listed for Cc1cnc(C(CC(=O)O)c2ccc(OC3Cc4ccccc4C3)cc2)o1 (centres unmarked) ?
A) 6.00 to 7.00
